# tgt: Cbl-b (Homo sapiens, UniProt Q13191)
# Construct: Cbl-b-HiBit KI Jurkat Cells were purchased from Promega; host or cells: Cbl-b-HiBiT knock-in Jurkat cells
# Sequence (Q13191 whole entry): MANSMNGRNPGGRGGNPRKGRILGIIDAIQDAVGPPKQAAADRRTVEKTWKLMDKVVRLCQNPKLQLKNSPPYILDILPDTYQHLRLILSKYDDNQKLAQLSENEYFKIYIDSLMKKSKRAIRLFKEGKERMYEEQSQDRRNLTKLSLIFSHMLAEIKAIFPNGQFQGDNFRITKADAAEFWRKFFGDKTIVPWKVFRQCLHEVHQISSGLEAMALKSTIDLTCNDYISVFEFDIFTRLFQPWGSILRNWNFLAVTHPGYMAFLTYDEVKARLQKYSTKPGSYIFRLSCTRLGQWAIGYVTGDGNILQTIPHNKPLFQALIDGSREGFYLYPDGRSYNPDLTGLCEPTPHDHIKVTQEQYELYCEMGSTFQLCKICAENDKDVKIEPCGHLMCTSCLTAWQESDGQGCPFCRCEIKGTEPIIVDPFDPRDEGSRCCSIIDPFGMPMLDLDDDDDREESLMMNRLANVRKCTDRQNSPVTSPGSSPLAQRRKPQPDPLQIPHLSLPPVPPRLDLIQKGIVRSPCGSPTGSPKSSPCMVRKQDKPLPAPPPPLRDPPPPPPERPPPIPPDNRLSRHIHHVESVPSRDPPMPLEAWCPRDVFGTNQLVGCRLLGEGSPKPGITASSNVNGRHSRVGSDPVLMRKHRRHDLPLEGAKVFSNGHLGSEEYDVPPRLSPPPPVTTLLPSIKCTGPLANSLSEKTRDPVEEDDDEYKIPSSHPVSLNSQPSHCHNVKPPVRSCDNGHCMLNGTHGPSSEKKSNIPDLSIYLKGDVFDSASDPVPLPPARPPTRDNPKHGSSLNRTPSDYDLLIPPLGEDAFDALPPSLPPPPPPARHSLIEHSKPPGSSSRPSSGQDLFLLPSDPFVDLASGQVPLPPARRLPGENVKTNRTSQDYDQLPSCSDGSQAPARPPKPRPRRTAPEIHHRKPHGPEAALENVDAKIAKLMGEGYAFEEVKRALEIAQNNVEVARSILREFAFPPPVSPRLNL
# assay_comment: Cbl-b Degradation Method B (Nano-Glo HiBiT lytic detection)
# Format: cell-based
# stated_conditions: Cbl-b-HiBit KI Jurkat Cells, incubated at least 6-24 hours; half maximal degradation; read-out: Cbl-b Degredation Method B IC50
readout: DC50

Previously resolved entries follow.
compound	DC50
Cn1cnnc1CC1(c2cccc(N3Cc4c(cc(CN5CCC(CN6CC7(C6)CN(c6ccc8c(c6)C(=O)N(C6CCC(=O)NC6=O)C8=O)C7)CC5)cc4C(F)(F)F)C3=O)c2)COC1 (centres unmarked)	> 0.5 µM
Cn1cnnc1CC1(c2cccc(N3Cc4c(cc(CN5CCC(CN6CCN(c7cccc8c7C(=O)N(C7CCC(=O)NC7=O)C8=O)CC6)CC5)cc4C(F)(F)F)C3=O)c2)COC1 (centres unmarked)	> 0.5 µM
Cn1cnnc1CC1(c2cccc(N3Cc4c(cc(N5CC6(CCN(c7ccc8c(c7)C(=O)N(C7CCC(=O)NC7=O)C8=O)C6)C5)cc4C(F)(F)F)C3=O)c2)COC1 (centres unmarked)	> 0.5 µM

API: value(readout= DC50, system= Cbl-b (Homo sapiens, UniProt Q13191), query= Cc1cc(N2CCC(O[C@H]3CC[C@@H](CN4CCN(C[C@H]5CCCN(Cc6cc7c(c(C(F)(F)F)c6)CN(c6cccc(C8(Cc9nncn9C)COC8)c6)C7=O)C5)C(C)(C)C4)CC3)CC2)c(F)c2c1C(=O)N(C1CCC(=O)NC1=O)C2 (some centres unmarked) )
< 0.005 µM

API: value(readout= DC50, system= Cbl-b (Homo sapiens, UniProt Q13191), query= Cc1cc(N2CCC(CN3CCC4(CC3)CN(c3ccc5cn(-c6cccc(C7(Cc8nncn8C)COC7)c6)nc5c3)C4)CC2)c(F)c2c1C(=O)N(C1CCC(=O)NC1=O)C2 (centres unmarked) )
> 0.5 µM

API: value(readout= DC50, system= Cbl-b (Homo sapiens, UniProt Q13191), query= Cn1cnnc1CC1(c2cccc(N3Cc4c(cc(CN5CCN(C6CCN(CC7CCN(c8ccc9c(c8)C(=O)N(C8CCC(=O)NC8=O)C9=O)CC7)CC6)CC5)cc4C(F)(F)F)C3=O)c2)COC1 (centres unmarked) )
> 0.5 µM

API: value(readout= DC50, system= Cbl-b (Homo sapiens, UniProt Q13191), query= COc1c(N2CCC(CN3CCC4(CC3)CN(c3cc5c(c(C(F)(F)F)c3)CN(c3cccc([C@]6(Cc7nncn7C)C[C@@H](C#N)C6)c3)C5=O)C4)CC2)ccc2c1CN(C1CCC(=O)NC1=O)C2=O (some centres unmarked) )
< 0.005 µM

API: value(readout= DC50, system= Cbl-b (Homo sapiens, UniProt Q13191), query= CC1c2nc(N3CCC(O[C@H]4CC[C@H](CN5CCN(Cc6cc7c(c(C(F)(F)F)c6)CN(c6cccc(C8(Cc9nncn9C)COC8)c6)C7=O)CC5(C)C)CC4)CC3)ccc2C(=O)N1C1CCC(=O)NC1=O (mixture of isomers) )
< 0.005 µM

API: value(readout= DC50, system= Cbl-b (Homo sapiens, UniProt Q13191), query= C[C@@H]1c2nc(N3CCC(O[C@H]4CC[C@H](CN5CCN(Cc6cc7c(c(C(F)(F)F)c6)CN(c6cccc(C8(Cc9nncn9C)CC(C#N)C8)c6)C7=O)CC5(C)C)CC4)CC3)ccc2C(=O)N1C1CCC(=O)NC1=O (single isomer, unassigned) [Example 313] )
> 0.5 µM

API: value(readout= DC50, system= Cbl-b (Homo sapiens, UniProt Q13191), query= CC(C)n1c(=O)n(C2CCC(=O)NC2=O)c2cccc(N3CCC(O[C@H]4CC[C@H](CN5CC6(CCN(Cc7cc8c(c(C(F)(F)F)c7)CN(c7cccc([C@]9(Cc%10nncn%10C)C[C@@H](C#N)C9)c7)C8=O)CC6)C5)CC4)CC3)c21 (some centres unmarked) )
< 0.005 µM

API: value(readout= DC50, system= Cbl-b (Homo sapiens, UniProt Q13191), query= Cn1cnnc1CC1(c2cccc(N3Cc4c(cc(CN5CCC(C6CCN(c7ccc8c(c7)C(=O)N(C7CCC(=O)NC7=O)C8=O)CC6)CC5)cc4C(F)(F)F)C3=O)c2)COC1 (centres unmarked) )
> 0.5 µM

----------
# tgt: Cbl-b (Homo sapiens)
# Construct: Cbl-b-HiBit KI Jurkat Cells were purchased from Promega; host or cells: Cbl-b-HiBiT knock-in Jurkat cells
# assay_comment: Cbl-b Degradation Method B (Nano-Glo HiBiT lytic detection)
# Format: cell-based
# stated_conditions: Cbl-b-HiBit KI Jurkat Cells, incubated at least 6-24 hours; half maximal degradation; read-out: Cbl-b Degredation Method B IC50
Listing of entries alongside the reported DC50.

molecule	tgt	DC50
Cn1cnnc1CC1(c2cccc(N3Cc4c(cc(CN5CCN([C@H]6CC[C@H](Nc7ccc8c(c7)C(=O)N(C7CCC(=O)NC7=O)C8=O)CC6)CC5)cc4C(F)(F)F)C3=O)c2)COC1 (stereo partly drawn) [Example 44]	Cbl-b (Homo sapiens)	> 500 nM
CC1c2nc(N3CCC(O[C@H]4CC[C@H](CN5[C@H](C)CN(Cc6cc7c(c(C(F)(F)F)c6)CN(c6cccc(C8(Cc9nncn9C)COC8)c6)C7=O)C[C@H]5C)CC4)CC3)ccc2C(=O)N1C1CCC(=O)NC1=O (stereo partly drawn) [Example 250]	Cbl-b (Homo sapiens)	< 5 nM
CC(C)n1c(=O)n(C2CCC(=O)NC2=O)c2cccc(N3CCC(O[C@H]4CC[C@H](CN5CCN(Cc6cc7c(c(C(F)(F)F)c6)CN(c6cccc([C@]8(Cc9nncn9C)C[C@@H](C#N)C8)c6)C7=O)CC[C@H]5C)CC4)CC3)c21 (stereo partly drawn) [Example 323]	Cbl-b (Homo sapiens)	< 5 nM
CC(C)n1c(=O)n(C2CCC(=O)NC2=O)c2cccc(N3CCC(O[C@H]4CC[C@H](CN5CCN(Cc6cc7c(c(C(F)(F)F)c6)CN(c6cccc([C@]8(Cc9nncn9C)C[C@@H](C#N)C8)c6)C7=O)C6(COC6)C5)CC4)CC3)c21 (stereo partly drawn) [Example 322]	Cbl-b (Homo sapiens)	5 to 50 nM
CC1c2nc(N3CCC(OC4CCC(CN5CCN(Cc6cc7c(c(C(F)(F)F)c6)CN(c6cccc(C8(Cc9nncn9C)COC8)c6)C7=O)C[C@H]5C)CC4)CC3)ccc2C(=O)N1C1CCC(=O)NC1=O (stereo partly drawn) [Example 238]	Cbl-b (Homo sapiens)	< 5 nM

Proceeding to the next molecule to report its DC50.
API: value(readout= DC50, system= Cbl-b (Homo sapiens), query= Cn1cnnc1CC1(c2cccc(N3Cc4c(cc(CN5CCC[C@H](CN6CCC(CN7CC8(C7)CN(c7ccc9c(c7)C(=O)N(C7CCC(=O)NC7=O)C9=O)C8)CC6)C5)cc4C(F)(F)F)C3=O)c2)COC1 (stereo partly drawn) [Example 114] )
5 to 50 nM

----------
# tgt: Cbl-b (Homo sapiens, UniProt Q13191)
# Construct: Cbl-b-HiBit KI Jurkat Cells were purchased from Promega; host or cells: Cbl-b-HiBiT knock-in Jurkat cells
# assay_comment: Cbl-b Degradation Method A (FACS, anti-Cbl-b antibody staining)
# Type: cell-based
# stated_conditions: Jurkat, Cbl-b-HiBit KI Jurkat Cells, incubated at least 20 hours; maximum degradation observed; read-out: Cbl-b Degredation Method A Dmax (%)
readout: Dmax

Previously resolved entries follow.
compound	Dmax
COc1c(N2CCC(O[C@H]3CC[C@H](CN4CCN(Cc5cc6c(c(C(F)(F)F)c5)CN(c5cccc([C@]7(Cc8nncn8C)C[C@@H](C#N)C7)c5)C6=O)CC4)CC3)CC2)ccc2c1CN(C1CCC(=O)NC1=O)C2=O (stereo partly drawn)	> 70%
CC1c2nc(N3CCC(O[C@H]4CC[C@H](CN5CCN(Cc6cc7c(c(C(F)(F)F)c6)CN(c6cccc([C@]8(Cc9nncn9C)C[C@@H](C#N)C8)c6)C7=O)CC5)CC4)CC3)ccc2C(=O)N1C1CCC(=O)NC1=O (stereo partly drawn)	35 to 70%
COc1c(N2CCC(O[C@H]3CC[C@H](CN4CCN(Cc5cc6c(c(C(F)(F)F)c5)CN(c5cccc(C7(Cc8nncn8C)COC7)c5)C6=O)CC4)CC3)CC2)ccc2c1CN(C1CCC(=O)NC1=O)C2=O (stereo partly drawn)	> 70%
CC1CN(C[C@H]2CC[C@H](OC3CCN(c4ccc5c(c4F)CN(C4CCC(=O)NC4=O)C5=O)CC3)CC2)CCN1Cc1cc2c(c(C(F)(F)F)c1)CN(c1cccc([C@]3(Cc4nncn4C)C[C@@H](C#N)C3)c1)C2=O (stereo partly drawn)	> 70%
C[C@@H]1c2nc(N3CCC(O[C@H]4CC[C@H](CN5CCN(Cc6cc7c(c(C(F)(F)F)c6)CN(c6cccc(C8(Cc9nncn9C)CC(C#N)C8)c6)C7=O)C(C)(C)C5)CC4)CC3)ccc2C(=O)N1C1CCC(=O)NC1=O (single isomer, unassigned)	35 to 70%

Proceeding to the next compound to report its Dmax.
Tell me the measured Dmax of Cn1cnnc1CC1(c2cccc(N3Cc4c(cc(CN5CCC[C@H](CN6CCC(CN7CC8(C7)CN(c7ccc9c(c7)C(=O)N(C7CCC(=O)NC7=O)C9=O)C8)CC6)C5)cc4C(F)(F)F)C3=O)c2)COC1 (stereo partly drawn) , please.
< 35%
